target: T1, monkey CTLA-4, full length, on transfected HEK293 cells (monkey); assay: FACS, monkey CTLA-4 expressing cells
T1 construct: whole, on cells; also called cCTLA-4; HEK293-cCTLA-4
observable: MFI at 200 nM
I only need the number, thanks.

- 31C12F3 fully human CTLA-4 antibody (human IgG1, kappa) (antibody, V domains shown, also called mAb010) VH: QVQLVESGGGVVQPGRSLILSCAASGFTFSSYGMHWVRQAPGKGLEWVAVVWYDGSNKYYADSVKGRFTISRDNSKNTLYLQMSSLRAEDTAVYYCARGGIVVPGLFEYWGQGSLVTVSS VL: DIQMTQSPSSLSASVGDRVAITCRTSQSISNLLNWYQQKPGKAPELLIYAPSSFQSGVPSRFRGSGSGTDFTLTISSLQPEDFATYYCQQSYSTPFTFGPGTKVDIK: 668

# input Annotate the binder 40C4C6 fully human CTLA-4 antibody (human IgG1, kappa) (antibody, V domains shown, also called mAb09; mAb009) VH: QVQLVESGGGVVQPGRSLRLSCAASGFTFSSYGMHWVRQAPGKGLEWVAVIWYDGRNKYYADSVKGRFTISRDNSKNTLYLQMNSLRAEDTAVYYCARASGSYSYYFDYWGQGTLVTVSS VL: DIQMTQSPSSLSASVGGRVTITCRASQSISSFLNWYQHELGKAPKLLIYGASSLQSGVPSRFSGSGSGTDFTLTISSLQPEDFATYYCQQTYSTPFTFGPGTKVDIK with its measured MFI at 200 nM.
# output 643

# input Provide one value: measured MFI at 200 nM of 92C8B6 fully human CTLA-4 antibody (human IgG1, kappa) (antibody, V domains shown, also called mAb42; mAb042) VH: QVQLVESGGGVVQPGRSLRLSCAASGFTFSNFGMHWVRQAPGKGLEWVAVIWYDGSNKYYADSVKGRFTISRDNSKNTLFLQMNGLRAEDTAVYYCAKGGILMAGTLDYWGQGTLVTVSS VL: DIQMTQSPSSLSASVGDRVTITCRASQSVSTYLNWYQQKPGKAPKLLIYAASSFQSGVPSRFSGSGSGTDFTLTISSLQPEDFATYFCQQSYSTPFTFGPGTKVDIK
# output 711

# input Give the reported value of MFI at 200 nM for this record: 97A8D1 fully human CTLA-4 antibody (human IgG1, kappa) (antibody, V domains shown, also called mAb49; mAb049) VH: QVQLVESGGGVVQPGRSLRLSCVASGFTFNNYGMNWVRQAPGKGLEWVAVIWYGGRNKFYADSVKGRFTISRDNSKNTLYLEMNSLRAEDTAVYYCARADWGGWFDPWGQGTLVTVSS VL: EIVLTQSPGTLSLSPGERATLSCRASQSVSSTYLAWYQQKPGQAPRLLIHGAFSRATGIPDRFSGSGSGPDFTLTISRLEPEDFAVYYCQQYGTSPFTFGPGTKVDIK
# output 831
